# assay_conditions: 353.15 K; Liquid
Listed compounds paired with reported vapor or sublimation pressure

compound: CCOCCO [2-ethoxyethan-1-ol]
units_text: kPa
vapor or sublimation pressure: 13.62
--
compound: CCCCOC=O [butyl methanoate]
units_text: kPa
vapor or sublimation pressure: 42.24
--
compound: Oc1ccccc1 [phenol]
units_text: kPa
vapor or sublimation pressure: 2.037
--
compound: CC(O)c1ccccc1 (centres undefined) [1-phenylethanol]
units_text: kPa
vapor or sublimation pressure: 0.76
